assay: Population PK model; format: in vivo, human; settings: human, plasma, iv
Counter-ions that a name gives are not always drawn. Peptide text beside a SMILES is read from it.
recorded.endpoint: clearance (mL/min)
Numeric answer only, unit mL/min assumed.

// lookup clearance for CC[C@H](C)CCCCC(=O)N[C@@H](CCN)C(=O)N[C@H](C(=O)N[C@@H](CCN)C(=O)N[C@H]1CCNC(=O)[C@H]([C@@H](C)O)NC(=O)[C@H](CCN)NC(=O)[C@H](CCN)NC(=O)[C@H](CC(C)C)NC(=O)[C@@H](CC(C)C)NC(=O)[C@H](CCN)NC1=O)[C@@H](C)O [colistin sulfate] (HELM PEPTIDE1{[CC[C@H](C)CCCCC(=O)[*:2]].[Dab].T.[Dab].[Dab].[Dab].[dL].L.[Dab].[Dab].T}$PEPTIDE1,PEPTIDE1,5:R3-11:R2$$$V2.0)
61.5
